target: human TLR8 (Homo sapiens, UniProt Q9NR97); test: TLR8 inhibition reporter assay (HEK-Blue cells, secreted embryonic alkaline phosphatase reporter); conditions: HEK-Blue cells overexpressing human TLR8, stimulated with R848 15.9 μM; read-out: TLR 8 IC50
Sequence (Q9NR97 27-1041): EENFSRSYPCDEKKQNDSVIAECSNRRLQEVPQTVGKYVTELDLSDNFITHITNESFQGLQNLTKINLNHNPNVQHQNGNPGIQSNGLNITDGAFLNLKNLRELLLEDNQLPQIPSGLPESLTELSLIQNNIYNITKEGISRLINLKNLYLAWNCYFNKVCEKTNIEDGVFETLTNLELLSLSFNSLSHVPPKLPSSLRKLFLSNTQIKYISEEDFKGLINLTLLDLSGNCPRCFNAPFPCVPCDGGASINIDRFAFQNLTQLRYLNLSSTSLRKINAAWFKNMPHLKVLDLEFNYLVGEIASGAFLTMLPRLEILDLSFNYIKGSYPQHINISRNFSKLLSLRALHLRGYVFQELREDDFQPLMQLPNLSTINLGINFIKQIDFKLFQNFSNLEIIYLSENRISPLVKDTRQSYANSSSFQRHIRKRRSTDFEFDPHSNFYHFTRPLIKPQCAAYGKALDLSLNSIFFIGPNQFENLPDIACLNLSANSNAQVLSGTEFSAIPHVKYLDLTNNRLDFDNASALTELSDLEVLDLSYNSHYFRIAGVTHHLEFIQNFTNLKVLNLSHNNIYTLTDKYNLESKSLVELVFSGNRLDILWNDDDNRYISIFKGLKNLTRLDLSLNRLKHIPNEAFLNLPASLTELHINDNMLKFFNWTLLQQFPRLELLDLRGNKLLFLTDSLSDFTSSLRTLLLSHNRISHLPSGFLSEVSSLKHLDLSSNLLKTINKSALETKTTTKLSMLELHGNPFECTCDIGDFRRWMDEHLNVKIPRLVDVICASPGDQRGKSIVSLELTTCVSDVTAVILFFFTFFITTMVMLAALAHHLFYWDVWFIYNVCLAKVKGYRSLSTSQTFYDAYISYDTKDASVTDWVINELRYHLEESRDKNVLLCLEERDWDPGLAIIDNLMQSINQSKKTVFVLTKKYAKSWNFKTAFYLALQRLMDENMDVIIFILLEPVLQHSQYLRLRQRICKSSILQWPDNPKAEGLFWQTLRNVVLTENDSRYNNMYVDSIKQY
pIC50: −log10 of the molar value.
MEASUREMENT_KIND: pIC50

A. COc1ccc(-c2nc3cc(C4CCN(C5CCN(C6CC6)CC5)CC4)ccc3n2CC(F)F)cc1OC
B. Cc1cc(-c2ccc(CN3CCC(N4CCCC4)CC3)cc2)cc2c1nc(-c1ccc(S(C)(=O)=O)cc1)n2C1CC1
**Q:** Lower pIC50: A or B ? Give the label of your selection.
**A:** A
(A: 4.52, B: 5.29)
